Target: 5α-reductase (Homo sapiens, UniProt P18405)
Construct: host or cells: Hs68 human genital skin fibroblasts
Sequence (P18405 whole entry): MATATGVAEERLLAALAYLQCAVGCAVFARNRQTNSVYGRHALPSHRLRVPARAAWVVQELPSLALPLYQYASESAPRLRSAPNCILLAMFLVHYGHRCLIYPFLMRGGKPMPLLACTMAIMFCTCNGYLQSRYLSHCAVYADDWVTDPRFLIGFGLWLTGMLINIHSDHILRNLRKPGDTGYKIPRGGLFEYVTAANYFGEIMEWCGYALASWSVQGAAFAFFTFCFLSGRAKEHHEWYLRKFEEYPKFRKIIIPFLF
Test: 5α-Reductase activity in Hs68 human genital skin fibroblasts (conversion of labeled testosterone, TLC analysis)
Assay type: cell-based
Settings: Hs68, test compound 1.00 µM; Hs68 cells; substrate testosterone 12 µM; incubated four hours; read-out: % Inhibition
Classify as follows. Reported inhibition at 1 µM greater than or equal to 90%: satisfied. Reported inhibition at 1 µM below: not satisfied.

>>> label_value("Cc1ccc2c(c1)CCC1NC(=O)CCC21 (racemic)")
"not satisfied"
>>> label_value("CN1C(=O)CC[C@@H]2c3ccc(F)cc3CC[C@@H]21 (racemic)")
"not satisfied"
>>> label_value("Cc1ccc2c(c1)CC[C@H]1[C@@H]2CCC(=O)N1C (racemic)")
"satisfied"
>>> label_value("CN1C(=O)CC[C@@H]2c3cc(Cl)c(Cl)cc3CC[C@H]21 (racemic)")
"satisfied"
>>> label_value("CN1C(=O)C=C[C@@H]2c3ccc(Br)cc3CC[C@H]21 (racemic)")
"satisfied"
>>> label_value("COc1ccc2c(c1)CCC1NC(=O)CCC21 (racemic)")
"not satisfied"
